Cited source: the supplement of paper PMC12669032

Consider the following compounds and their measured growth AUC readings.
# System: Odoribacter splanchnicus
# Assay details: growth AUC relative to DMSO control (median of replicates) (fraction); higher = more growth (less inhibition), active = hit call of the paper
# Assay setup: 20 µM; 24 h
Assay endpoint: growth AUC

# Compound, Endpoint result
rows = [
    ("COc1nc(N)nc(NC(C)(C)C)n1", "1.07 (inactive)"),
    ("COc1cc(OC)nc(NC(=O)NS(=O)(=O)c2c(Cl)nc3ccccn23)n1", "0.984 (inactive)"),
    ("CCCCC(CC)CN1C(=O)C2C(C1=O)[C@H]1C=C[C@@H]2C1 (mixture of isomers)", "1.03 (inactive)"),
    ("CCCCCCCCCCCC[N+](C)(C)Cc1ccc(CC)cc1.[Cl-]", "0.973 (inactive)"),
    ("CN1CCC[C@H]1c1cccnc1", "0.989 (inactive)"),
    ("c1ccc(Sc2ccccc2)cc1", "0.503 (inactive)"),
    ("COC(=O)C(C)Oc1ccc(Oc2ncc(C(F)(F)F)cc2Cl)cc1 (stereo unspecified)", "1.03 (inactive)"),
    ("Cc1ccc(C(C)NC(=O)[C@@H](NC(=O)OC(C)C)C(C)C)cc1 (stereo partly specified)", "0.953 (inactive)"),
    ("COC(=O)c1c(Cl)nn(C)c1S(=O)(=O)NC(=O)Nc1nc(OC)cc(OC)n1", "0.999 (inactive)"),
    ("O=C(Nc1ccc(Cl)cc1C(O)c1ccccc1)c1ccncc1 (stereo unspecified)", "0.971 (inactive)"),
    ("Br[C@@H]1CC[C@H](Br)[C@H](Br)CC[C@@H](Br)[C@@H](Br)CC[C@H]1Br", "1.08 (inactive)"),
]

###

# Test system: Bacteroides clarus
# Assay details: growth AUC relative to DMSO control (median of replicates) (fraction); higher = more growth (less inhibition), active = hit call of the paper
# Assay setup: 20 µM; 24 h
Consider the following molecules and their measured growth AUC readings.
Assay endpoint: growth AUC

# Molecule, Endpoint result
rows = [
    ("COC(=O)c1csc(C)c1S(=O)(=O)NC(=O)n1nc(OC)n(C)c1=O", 1),
    ("O=C1NCCN1", 1.02),
    ("CCSc1nc(NC(C)C)nc(NC(C)C)n1", 0.923),
    ("CCC([O-])=C1C(=O)CC(C(=O)[O-])CC1=O.[Ca+2] (configuration not stated)", 0.998),
    ("CC(C)C(O)(c1ccc(OC(F)(F)F)cc1)c1cncnc1 (configuration not stated)", 0.938),
    ("CCCCCCCCCC[N+](C)(C)Cc1ccccc1.[Cl-]", 0.987),
    ("O=C1NCC[n+]2ccccc21.[Br-]", 1.01),
    ("CN(C)C(N)=O", 0.998),
    ("CCc1nc2ncnn2c(N)c1CCCCCC(=O)O.Cl", 1.07),
    ("CCCCCCC(C)OC(=O)C(C)Oc1ccc(Cl)cc1C (configuration not stated)", 0.973),
    ("Nc1ccc(S(=O)(=O)Nc2nccs2)cc1", 0.992),
    ("CCOC(=O)C(C)Oc1ccc(Oc2nc3ccc(Cl)cc3o2)cc1 (racemic)", 0.96),
]

###

Consider the following molecules and their measured growth AUC readings.
# Test system: Bifidobacterium longum subsp. longum
# Assay details: growth AUC relative to DMSO control (median of replicates) (fraction); higher = more growth (less inhibition), active = hit call of the paper
# Assay setup: 20 µM; 24 h
Assay endpoint: growth AUC

# Molecule, Assay endpoint, Endpoint result
measured = [
    ("CC(C)(NC(=O)NCc1ccccc1Cl)c1ccccc1", "growth AUC", 1.08),
    ("N#Cc1ccc(CC(=NNC(=O)Nc2ccc(OC(F)(F)F)cc2)c2cccc(C(F)(F)F)c2)cc1 (mixture of isomers)", "growth AUC", 0.999),
    ("CCOC(=O)c1nc(C(Cl)(Cl)Cl)n(-c2ccc(Cl)cc2Cl)n1", "growth AUC", 0.983),
    ("CCSC(=O)N(CC(C)C)CC(C)C", "growth AUC", 0.842),
    ("CC1CN(C2CCCCCCCCCCC2)CC(C)O1 (mixture of isomers)", "growth AUC", 0.985),
    ("CC(C)N(C(=O)CS(=O)CC(=O)O)c1ccc(F)cc1 (stereo not given)", "growth AUC", 1.03),
    ("Cc1nn(C)c(F)c1C(=O)Nc1ccccc1C(C)CC(C)C (stereo not given)", "growth AUC", 0.992),
    ("CCCOc1nc2ccc(I)cc2c(=O)n1CCC", "growth AUC", 0.937),
    ("COC(=O)c1c(Cl)nn(C)c1S(=O)(=O)NC(=O)Nc1nc(OC)cc(OC)n1", "growth AUC", 1.06),
    ("C/C=C/C(=O)Oc1c(C(C)CCCCCC)cc([N+](=O)[O-])cc1[N+](=O)[O-] (mixture of isomers)", "growth AUC", 0.289),
]

###

Consider the following molecules and their measured growth AUC readings.
# Tested on: Parabacteroides merdae
# Assay details: growth AUC relative to DMSO control (median of replicates) (fraction); higher = more growth (less inhibition), active = hit call of the paper
# Assay setup: 20 µM; 24 h

# Molecule, growth AUC
records = [
    ("COc1cc(OC)nc(NC(=O)NS(=O)(=O)N(C)S(C)(=O)=O)n1", 0.983),
    ("CCOC(=O)Cc1[nH]nc2ccc(Cl)cc12", 1.03),
    ("O=C(O)c1cccc2nnsc12", 0.998),
    ("c1ccc(CNc2ncnc3nc[nH]c23)cc1", 1.02),
    ("CCc1nc2ncnn2c(N)c1CCCC(=O)O.Cl", 0.997),
    ("Cc1cccc(C)c1N(CC(=O)O)C(=O)CS(=O)(=O)[O-].[Na+]", 0.997),
    ("O=C1NCCN1", 1.04),
    ("C=CCOC(Cn1ccnc1)c1ccc(Cl)cc1Cl (stereo not given)", 0.919),
    ("C[C@@]1(c2ccccc2)NC(=O)N(Nc2ccccc2)C1=O", 0.996),
    ("CC(C)C(O)(c1ccc(OC(F)(F)F)cc1)c1cncnc1 (stereo not given)", 0.588),
    ("COc1cc(OC)nc(NC(=O)NS(=O)(=O)c2c(-c3nnn(C)n3)cnn2C)n1", 1.03),
    ("C/C=C/C=C/CCCCCCCO", 0.982),
    ("CCCCOCCOCCOCc1cc2c(cc1CCC)OCO2", 0.924),
    ("Cc1cc(C)c(C2=C(O)C3(CCCC3)OC2=O)c(C)c1", 1),
    ("CCNc1nc(N)nc(Cl)n1", 1.02),
    ("O=S(=O)(Oc1ccc(Cl)cc1)c1ccccc1", 0.957),
    ("O=S(=O)(Oc1ccc(Cl)cc1Cl)c1ccccc1", 1.02),
    ("CSc1nc(NC2CC2)nc(NC(C)(C)C)n1", 0.991),
    ("CN(C)C(=O)c1cccnc1S(N)(=O)=O", 1),
    ("O=C(Oc1ccccc1)n1c(C(F)(F)F)nc2cc(Cl)c(Cl)cc21", 0.144),
    ("O=[N+]([O-])c1ccc2c(c1)Cc1ccccc1-2", 0.992),
    ("CCCCCCCC(=O)Oc1c(Br)cc(C#N)cc1Br", 0.922),
    ("CCc1cccc(C)c1N(C(=O)C(=O)O)[C@@H](C)C(=O)O", 1.03),
    ("Nc1ccc(S(=O)(=O)Nc2cnc3ccccc3n2)cc1", 0.97),
    ("O=C1NC(=O)c2ccccc21", 1.02),
]

###

# Tested on: Bifidobacterium longum subsp. longum
# Assay details: growth AUC relative to DMSO control (median of replicates) (fraction); higher = more growth (less inhibition), active = hit call of the paper
# Assay setup: 20 µM; 24 h
Decision: growth AUC compared against 1; not below it gives Fulfilled, below it gives Not fulfilled.

# Compound, Label class
data = [
    ("Cc1ccc(C(C)NC(=O)[C@@H](NC(=O)OC(C)C)C(C)C)cc1 (stereo partly specified)", "Not fulfilled"),
    ("CCc1cc(C(=O)O)cc(CC)c1C1C(=O)N2CCOCCN2C1=O", "Fulfilled"),
    ("Br[C@@H]1CC[C@H](Br)[C@H](Br)CC[C@@H](Br)[C@@H](Br)CC[C@H]1Br", "Not fulfilled"),
    ("O=[N+](Nc1ccccc1)c1ccccc1", "Not fulfilled"),
    ("COc1cc(OC)nc(NC(=O)NS(=O)(=O)Nc2ccccc2C(=O)C2CC2)n1", "Not fulfilled"),
    ("Nc1ccc(O)cc1", "Not fulfilled"),
    ("CSc1nc(NC2CC2)nc(NC(C)(C)C)n1", "Fulfilled"),
    ("COC(=O)c1c(Cl)c(Cl)c(C(=O)OC)c(Cl)c1Cl", "Not fulfilled"),
    ("Cc1cc(C2CC2)nc(Nc2ccc(O)cc2)n1", "Fulfilled"),
    ("FC(F)(F)/N=C1\\SC(=Nc2ccccc2)N(c2ccccc2)\\C1=N\\C(F)(F)F", "Fulfilled"),
    ("CCCCOCN(C(=O)CS(=O)(=O)[O-])c1c(CC)cccc1CC.[Na+]", "Fulfilled"),
    ("c1ccc(Nc2ccccc2)cc1", "Not fulfilled"),
    ("CSc1nnc(C(C)(C)C)c(=O)n1/N=C/C(C)C", "Fulfilled"),
    ("N#Cc1ccccc1NC(=O)c1snc(Cl)c1Cl", "Not fulfilled"),
    ("S=C([S-])NCCNC(=S)[S-].S=C([S-])NCCNC(=S)[S-].[Mn+2].[Zn+2]", "Fulfilled"),
    ("CC(C)N(C(=O)C(=O)O)c1ccc(F)cc1", "Fulfilled"),
    ("COC(=O)Nc1ccc(Cl)c(Cl)c1", "Not fulfilled"),
    ("CCCCCCCC(=O)Oc1c(Br)cc(C#N)cc1Br", "Fulfilled"),
    ("O=C(O)c1cccc2nnsc12", "Fulfilled"),
    ("CCOC(N)=O", "Fulfilled"),
    ("CCCCCCCCCCCC[N+](C)(C)Cc1ccc(CC)cc1.[Cl-]", "Not fulfilled"),
    ("CCc1cccc(C)c1N(C(=O)C(=O)O)[C@@H](C)C(=O)O", "Not fulfilled"),
    ("CCOc1ccc2c(c1)C(C)=CC(C)(C)N2", "Fulfilled"),
    ("CC(C)c1cc(Oc2ccccc2)cc(C(C)C)c1NC(=S)NC(C)(C)C", "Not fulfilled"),
    ("CCCCC(CC)CN1C(=O)C2C(C1=O)[C@H]1C=C[C@@H]2C1 (mixture of isomers)", "Fulfilled"),
    ("COC(=O)c1ccc(C(F)(F)F)nc1S(=O)(=O)[N-]C(=O)Nc1nc(OC)cc(OC)n1.[Na+]", "Not fulfilled"),
    ("NC(Cn1cncn1)C(=O)O (stereo unspecified)", "Not fulfilled"),
    ("O=c1cccc2n1CCn1c-2cccc1=O", "Not fulfilled"),
    ("c1ccc2c(c1)-c1cccc3c1c-2cc1ccccc13", "Fulfilled"),
    ("CCCCCCC(C)OC(=O)COc1nc(F)c(Cl)c(N)c1Cl (stereo unspecified)", "Not fulfilled"),
    ("COc1nc(N)nc(C(F)(F)F)n1", "Fulfilled"),
]
